Each recorded value in this set is attributed to ChEMBL document CHEMBL1134978.

# maps each entry to its IC50
Target: Nucleic Acid
Test: In vitro inhibition of decoding site of bacterial rRNA (within the 30S ribosomal subunit) encoding luciferase reporter in transcription-translation assay

Here are 3 compounds together with their reported answers.
compound="NC1CC(N)C(C(=O)N2CCC3(CC2)OCCO3)CC1O (configuration not stated)" observed_value="> 1000 µM"
compound="NC(=O)C1CC(O)C(N)CC1N (configuration not stated)" observed_value="> 1000 µM"
compound="NC(=O)[C@H]1CCCN1C(=O)C1CC(O)C(N)CC1N (some centres not stated)" observed_value="> 1000 µM"

Problem: Quick one: IC50 of NC1CC(N)C(C(=O)Nc2ccc(-c3cnco3)cc2)CC1O (configuration not stated) ?
Result: 59 µM

Problem: Quick one: IC50 of NC1CC(N)C(C(=O)NCCCN2CCCC2=O)CC1O (configuration not stated) ?
Result: > 1000 µM

Problem: Quick one: IC50 of NC1CC(N)C(OC2OC(CO)C(O)C(O)C2N)C(O)C1O (configuration not stated) ?
Result: 3.9 µM

Problem: Quick one: IC50 of NC1CC(N)C(C(=O)Nc2ccc(-n3ccnc3)cc2)CC1O (configuration not stated) ?
Result: 290 µM

Problem: Quick one: IC50 of NC1CC(N)C(C(=O)N2CCNCC2)CC1O (configuration not stated) ?
Result: > 1000 µM

Problem: Quick one: IC50 of NC1CC(N)C(C(=O)N2CCN(C3=NCCCN3)CC2)CC1O (configuration not stated) ?
Result: > 1000 µM

Problem: Quick one: IC50 of `N[C@@H]1C[C@H](N)[C@@H](O)[C@H](O)[C@H]1O` ?
Result: > 1000 µM

Problem: Quick one: IC50 of NC1CC(N)C(C(=O)NCCN2CCOCC2)CC1O (configuration not stated) ?
Result: > 1000 µM

Problem: Quick one: IC50 of N#Cc1cccc(NC(=O)C2CC(O)C(N)CC2N)c1 (configuration not stated) ?
Result: 450 µM
